Exercise: for every item that follows, state its recorded DC50.
Molecular target: IRAK4 (Homo sapiens, UniProt Q9NWZ3)
Construct: endogenous in cells; host or cells: OCI-LY10
Sequence (Q9NWZ3 1-460): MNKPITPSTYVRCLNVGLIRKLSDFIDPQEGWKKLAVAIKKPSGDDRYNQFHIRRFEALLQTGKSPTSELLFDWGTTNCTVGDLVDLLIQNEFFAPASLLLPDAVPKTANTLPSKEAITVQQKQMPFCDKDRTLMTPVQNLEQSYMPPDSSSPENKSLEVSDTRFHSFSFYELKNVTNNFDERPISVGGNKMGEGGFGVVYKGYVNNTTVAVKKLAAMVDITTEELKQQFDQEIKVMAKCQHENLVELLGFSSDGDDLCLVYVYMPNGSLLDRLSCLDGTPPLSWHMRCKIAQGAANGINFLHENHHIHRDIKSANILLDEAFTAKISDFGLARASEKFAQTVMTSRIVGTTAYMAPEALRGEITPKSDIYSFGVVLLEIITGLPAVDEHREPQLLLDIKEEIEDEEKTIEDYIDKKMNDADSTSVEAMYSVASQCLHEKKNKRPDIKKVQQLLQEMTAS
Test: IRAK4 MSD Degradation in OCI-LY10
Assay type: cell-based
Details: OCI-LY10 cells, Meso Scale Discovery, incubated 4 to 24 hours

Illustrative cases are given below, each with its answer.
CN(CCCO[C@H]1C[C@H](Nc2cccc3c2C(=O)N(C2CCC(=O)NC2=O)C3=O)C1)C[C@H]1CC[C@H](n2cc3cc(NC(=O)c4cccc(C(F)(F)F)n4)ncc3n2)CC1 (stereo partly shown)    > 200 nM
COc1cc2nn([C@H]3CC[C@H](CN4CCC(O[C@H]5C[C@@H](c6cccc7c6n(C)c(=O)n7C6CCC(=O)NC6=O)C5)CC4)CC3)cc2cc1NC(=O)c1cccc(C(F)(F)F)n1 (stereo partly shown)    10 to 50 nM
Cc1cccc(C(=O)Nc2cc3sc([C@H]4CC[C@H](C(=O)N5CCC6(CC5)CC(CCNc5cccc7c5C(=O)N(C5CCC(=O)NC5=O)C7=O)C6)CC4)nc3cc2C(C)(C)O)n1 (stereo partly shown)    > 200 nM
CC(C)(O)c1cc2nn([C@H]3CC[C@H](CN4CCC(c5cccc6c(N7CCC(=O)NC7=O)cncc56)CC4)CC3)cc2cc1NC(=O)c1cccc(C(F)(F)F)n1    < 10 nM
COc1cc2nn([C@H]3CC[C@H](CN4CCN(c5cccc6c(N7CCC(=O)NC7=O)cncc56)CC4)CC3)cc2cc1NC(=O)c1ccnc(C(F)(F)F)n1    10 to 50 nM

# batch: return DC50 for each of the 7 compounds below
1. Cn1c(=O)n(C2CCC(=O)NC2=O)c2cccc(N3CCN(C[C@H]4CC[C@H](n5cc6cc(NC(=O)c7cccc(C(F)(F)F)n7)c(F)cc6n5)CC4)CC3)c21 (stereo partly shown)
2. COc1cc2nn([C@H]3CC[C@H](CN4C[C@H]5C[C@@H]4CN5c4cccc5c(N6CCC(=O)NC6=O)cncc45)CC3)cc2cc1NC(=O)c1cccc(C(F)(F)F)n1
3. Cc1cc2nn([C@H]3CC[C@H](CN4C5CCC4CN(c4cccc6c4n(C)c(=O)n6C4CCC(=O)NC4=O)C5)CC3)cc2cc1NC(=O)c1cccc(C(F)(F)F)n1 (stereo partly shown)
4. CC(C)(N)c1cc2nn([C@H]3CC[C@H](CN4C5CCC4CN(c4cccc6c(N7CCC(=O)NC7=O)cncc46)C5)CC3)cc2cc1NC(=O)c1cccc(C(F)(F)F)n1
5. COc1cc2nc([C@H]3CC[C@H](CN4CC5(CC(CCNc6cccc7c6C(=O)N(C6CCC(=O)NC6=O)C7=O)C5)C4)CC3)n(C)c2cc1NC(=O)c1cccc(C(F)(F)F)n1 (stereo partly shown)
6. COc1cc2nn([C@H]3CC[C@H](CN4CCC(c5ccc6c(c5)n(C)c(=O)n6C5CCC(=O)NC5=O)CC4)CC3)cc2cc1NC(=O)c1cncc(C#N)c1 (stereo partly shown)
7. COc1cc2nn([C@H]3CC[C@H](CN4CCN(c5cccc6c(N7CCC(=O)NC7=O)cncc56)[C@@H](C)C4)CC3)cc2cc1NC(=O)c1cccc(C(F)(F)F)n1

// result
1. < 10 nM
2. 10 to 50 nM
3. < 10 nM
4. < 10 nM
5. 50 to 100 nM
6. > 200 nM
7. < 10 nM

###

Target: IRAK4 (Homo sapiens, UniProt Q9NWZ3)
Construct: endogenous in cells; host or cells: OCI-LY10
Test: IRAK4 MSD Degradation in OCI-LY10
Type: cell-based
Settings: OCI-LY10 cells, Meso Scale Discovery, incubated 4 to 24 hours
Record form. Attribute: DC50. Fill in for each entry.

COc1cc2nn([C@H]3CC[C@H](CN4CCC5(CC4)CCN(c4cccc6c4n(C)c(=O)n6C4CCC(=O)NC4=O)CC5)CC3)cc2cc1NC(=O)c1cncc(C#N)c1 (some centres unmarked)    < 10 nM

Quick batch: DC50 for everything below.
1. Cn1c(=O)n(C2CCC(=O)NC2=O)c2cccc(C3CCN(C[C@H]4CC[C@H](n5cc6cc(NC(=O)c7cccc(C(F)(F)F)n7)c(N7C[C@@H]8C[C@H]7CO8)cc6n5)CC4)CC3)c21 (some centres unmarked)
2. CN(CCCCNc1cccc2c1C(=O)N(C1CCC(=O)NC1=O)C2=O)C[C@H]1CC[C@H](c2nc3cc(C(C)(C)O)c(NC(=O)c4cccc(C(F)(F)F)n4)cc3s2)CC1 (some centres unmarked)
3. COc1cc2nn([C@H]3CC[C@H](CN4CCC(c5cccc6c5n(C)c(=O)n6C5CCC(=O)NC5=O)CC4)CC3)cc2cc1NC(=O)c1cnc(C)c(Cl)c1 (some centres unmarked)
4. COC(=O)c1cc2nn([C@H]3CC[C@H](CN4CCN(c5cccc6c5n(C)c(=O)n6C5CCC(=O)NC5=O)CC4)CC3)cc2cc1NC(=O)c1cccc(C(F)(F)F)n1 (some centres unmarked)

// result
1: 10 to 50 nM; 2: < 10 nM; 3: > 200 nM; 4: 10 to 50 nM

Batch request: DC50 per item, same order as input.
1. Cn1c(=O)n(C2CCC(=O)NC2=O)c2cccc(N3CCN(C[C@H]4CC[C@H](n5cc6cc(NC(=O)c7cccc(C(F)(F)F)n7)c([S+](C)[O-])cc6n5)CC4)CC3)c21 (some centres unmarked)
2. CC(C)(O)c1cc2nn([C@H]3CC[C@H](CN4C[C@H]5C[C@@H]4CN5c4cccc5c(N6CCC(=O)NC6=O)cncc45)CC3)cc2cc1NC(=O)c1cccc(C(F)(F)F)n1
3. Cn1c(=O)n(C2CCC(=O)NC2=O)c2cccc(C3CCN(C[C@H]4CC[C@H](c5cc6cc(NC(=O)c7cccc(C(F)(F)F)n7)ccn6n5)CC4)CC3)c21 (some centres unmarked)
4. COc1cc2nc([C@H]3CC[C@H](CN4CCC(c5cccc6c5n(C)c(=O)n6C5CCC(=O)NC5=O)CC4)CC3)sc2cc1NC(=O)c1cncc(C#N)c1 (some centres unmarked)
5. Cc1cc2nn([C@H]3CC[C@H](CN4CCN(c5cccc6c5n(C)c(=O)n6C5CCC(=O)NC5=O)CC4(C)C)CC3)cc2cc1NC(=O)c1cccc(C(F)(F)F)n1 (some centres unmarked)
6. CC(C)(O)c1cc2nc([C@H]3CC[C@H](C(=O)N4CCC5(CC4)CC(CCNc4cccc6c4C(=O)N(C4CCC(=O)NC4=O)C6=O)C5)CC3)sc2cc1NC(=O)c1cccc(C(F)F)n1 (some centres unmarked)

// result
["< 10 nM", "< 10 nM", "< 10 nM", "< 10 nM", "10 to 50 nM", "100 to 200 nM"]

###

Biological target: IRAK4 (Homo sapiens)
Construct: endogenous in cells; host or cells: OCI-LY10
Sequence (Q9NWZ3 1-460): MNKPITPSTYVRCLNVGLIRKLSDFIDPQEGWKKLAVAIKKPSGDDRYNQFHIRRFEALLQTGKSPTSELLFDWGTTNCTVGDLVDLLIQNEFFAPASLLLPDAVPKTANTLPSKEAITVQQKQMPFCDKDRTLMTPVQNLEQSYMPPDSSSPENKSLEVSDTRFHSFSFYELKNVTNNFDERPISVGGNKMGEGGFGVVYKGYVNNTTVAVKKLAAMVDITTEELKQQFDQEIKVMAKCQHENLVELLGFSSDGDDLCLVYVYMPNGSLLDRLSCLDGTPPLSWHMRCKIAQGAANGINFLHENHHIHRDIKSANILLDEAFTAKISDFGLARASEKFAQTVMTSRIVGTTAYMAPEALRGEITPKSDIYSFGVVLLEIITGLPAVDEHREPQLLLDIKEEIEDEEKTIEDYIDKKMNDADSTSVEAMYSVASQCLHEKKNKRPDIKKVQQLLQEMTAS
Assay: IRAK4 MSD Degradation in OCI-LY10
Assay type: cell-based
Conditions: OCI-LY10 cells, Meso Scale Discovery, incubated 4 to 24 hours
property name: DC50

COc1ccc2c(c1C1CCN(C[C@H]3CC[C@H](n4cc5cc(NC(=O)c6cccc(C(F)(F)F)n6)ncc5n4)CC3)CC1)n(C)c(=O)n2C1CCC(=O)NC1=O (stereo partly shown) [I-83]    < 10 nM

Fill in DC50 for each of the 7 molecules listed.
1. CC(C)Nc1cc(-c2ccc3cc(C#N)cnn23)ncc1C(=O)N[C@H]1CC[C@H](CN(C)C2CCN(c3cccc4c3n(C)c(=O)n4C3CCC(=O)NC3=O)CC2)CC1 (stereo partly shown)
2. Cn1c(=O)n(C2CCC(=O)NC2=O)c2cccc(C3CCN(C[C@H]4CC[C@H](n5cc6cc(NC(=O)c7cccc(C(F)(F)F)n7)c(C7CC7)cc6n5)CC4)CC3)c21 (stereo partly shown)
3. COc1cc(NC(=O)c2cccc(C(F)(F)F)n2)cc2cn([C@H]3CC[C@H](CN4CCN(c5cccc6c5n(C)c(=O)n6C5CCC(=O)NC5=O)CC4)CC3)nc12 (stereo partly shown)
4. COc1cc2nn([C@H]3CC[C@H](CN4CCC(c5c(F)ccc6c5n(C)c(=O)n6C5CCC(=O)NC5=O)CC4)CC3)cc2cc1NC(=O)c1cccc(C(F)(F)F)n1 (stereo partly shown)
5. Cn1c(=O)n(C2CCC(=O)NC2=O)c2cccc(N3CC4CC(C3)N4C[C@H]3CC[C@@H](n4cc5cc(NC(=O)c6cccc(C(F)(F)F)n6)ccc5n4)CC3)c21 (single isomer, unassigned)
6. COc1cc2nn([C@H]3CC[C@H](CN4CCN(c5ccc(F)c6c(N7CCC(=O)NC7=O)cncc56)CC4)CC3)cc2cc1NC(=O)c1cccc(C(F)(F)F)n1
7. CN(CCCO[C@H]1C[C@@H](Nc2cccc3c2C(=O)N(C2CCC(=O)NC2=O)C3=O)C1)C[C@H]1CC[C@H](n2cc3cc(NC(=O)c4cccc(C(F)(F)F)n4)c(C(C)(C)O)cc3n2)CC1 (stereo partly shown)

// result
< 10 nM
< 10 nM
< 10 nM
< 10 nM
> 200 nM
< 10 nM
10 to 50 nM

Below are some molecules; for each one, tell me its DC50.
1. Cc1cccc(C(=O)Nc2cc3sc([C@H]4CC[C@H](C(=O)N5CC6(CC(CCNc7cccc8c7C(=O)N(C7CCC(=O)NC7=O)C8=O)C6)C5)CC4)nc3cc2C(C)(C)O)n1 (stereo partly shown)
2. Cn1c(=O)n(C2CCC(=O)NC2=O)c2cccc(N3CCN(C[C@H]4CC[C@H](n5cc6cc(NC(=O)c7cccc(C(F)(F)F)n7)c(N7C[C@H]8C[C@@H]7CO8)cc6n5)CC4)CC3)c21 (stereo partly shown)
3. O=C1CCN(c2cncc3cc(C4CCN(C[C@H]5CC[C@H](n6cc7cc(NC(=O)c8cccc(C(F)(F)F)n8)ccc7n6)CC5)CC4)ccc23)C(=O)N1

// result
100 to 200 nM
< 10 nM
> 200 nM
